Assay: Growth inhibition of human MSC cells after 48 hrs by SRB assay
Type: cell-based
Conditions: msc, 48 h
This listing pairs compounds with measured LC50.

COMPOUND | MEASURED VALUE
O=c1[nH]cc(F)c(=O)[nH]1 [FLUOROURACIL] | 100 µM
c1ccc(C(c2ccc(N3CCNCC3)cc2)C23CC4CC(CC(C4)C2)C3)cc1 (centres undefined) | 9.33 µM
CCN1CCN(c2ccc(C(c3ccccc3)C34CC5CC(CC(C5)C3)C4)cc2)CC1 (centres undefined) | 100 µM

Turning now to a further compound:
Look up LC50 for this compound: CN1CCN(c2ccc(C(c3ccccc3)C34CC5CC(CC(C5)C3)C4)cc2)CC1 (centres undefined)
91.56 µM
